Tested on: HS 578T breast
Test: NCI-60 one-dose screen, 48 h (100 = growth as untreated, 0 = no growth, -100 = all killed)
Conditions: 10 µM unless noted
About 83,000 compounds went through this panel and 20% of them were active in at least one assay; those are over-represented in the sample as a whole.

[
  {
    "molecular.string": "CN1CCN(c2nc(-c3cnc4ccccc4n3)cc3ccccc23)CC1",
    "assayed.target": "HS 578T breast",
    "endpoint.unit": "%",
    "growth": 85.6
  },
  {
    "molecular.string": "N/C(=N\\c1nc2c(Cl)cccc2s1)C(Cl)(Cl)Cl",
    "assayed.target": "HS 578T breast",
    "endpoint.unit": "%",
    "growth": 80.2
  },
  {
    "molecular.string": "Brc1cccc(/C=N/Nc2nc(N/N=C/c3cccc(Br)c3)nc(N3CCOCC3)n2)c1",
    "assayed.target": "HS 578T breast",
    "endpoint.unit": "%",
    "growth": 66.2
  },
  {
    "molecular.string": "COC[C@]12CC[C@@H](C)[C@H](C)[C@H]1C1=CC[C@@H]3[C@@]4(C)CCCNC(C)(C)[C@@H]4CC[C@@]3(C)[C@]1(C)CC2",
    "assayed.target": "HS 578T breast",
    "endpoint.unit": "%",
    "growth": 74.3
  },
  {
    "molecular.string": "CC(=O)Nc1ccc(NC(=O)Nc2cccc(-c3nc(-c4ccc(NC(=O)c5cccnc5)cc4Cl)no3)c2)cc1C(F)(F)F",
    "assayed.target": "HS 578T breast",
    "endpoint.unit": "%",
    "growth": -22.9
  },
  {
    "molecular.string": "O=C(NNc1nc2cc(F)cc(F)c2n2cccc12)c1ncccn1",
    "assayed.target": "HS 578T breast",
    "endpoint.unit": "%",
    "growth": 42.8
  },
  {
    "molecular.string": "CSc1nccc(-c2c(-c3ccc(F)c(OCc4ccc(F)cc4)c3)nc3sccn23)n1",
    "assayed.target": "HS 578T breast",
    "endpoint.unit": "%",
    "growth": 88.2
  },
  {
    "molecular.string": "COc1cc(/C=N/n2cnc3oc(-c4ccccc4)cc3c2=N)cc(CN2CCCCC2)c1O",
    "assayed.target": "HS 578T breast",
    "endpoint.unit": "%",
    "growth": -35.9
  },
  {
    "molecular.string": "CCn1c2ccc(/C=N/NS(=O)(=O)CCN(C)C)cc2c2cc(/C=N/NS(=O)(=O)CCN(C)C)ccc21",
    "assayed.target": "HS 578T breast",
    "endpoint.unit": "%",
    "growth": 91.1
  },
  {
    "molecular.string": "COC1=C(c2ccccc2)C(=O)C(OC)=C(c2ccccc2)C1=O",
    "assayed.target": "HS 578T breast",
    "endpoint.unit": "%",
    "growth": 96.8
  }
]

* * *

Test system: SF-295 CNS
Test: NCI-60 one-dose screen, 48 h (100 = growth as untreated, 0 = no growth, -100 = all killed)
Details: 10 µM unless noted
This is part of a sample that, as a whole, favours compounds with a hit. Of some 83,000 tested, about 20% had one in any assay. The source made the active and inactive calls. Rule for the calls: active = growth percent below 10; inactive = the rest.
Readings of growth for the listed compounds

[
  {
    "compound": "CCOC(=O)c1c(NCC(=O)Nc2cccc([N+](=O)[O-])c2)sc2c1CCCC2",
    "assayed.target": "SF-295 CNS",
    "growth": "-90.2% (active)"
  },
  {
    "compound": "O=C(O)c1ccc(-n2cc(CNc3ccc(F)cc3)c(-c3ccc(C(F)(F)F)cc3)n2)cc1",
    "assayed.target": "SF-295 CNS",
    "growth": "63.9% (inactive)"
  },
  {
    "compound": "COc1cc(C2CC(c3ccc(Nc4nc(NCCO)nc(Nc5ccc(Cl)cc5)n4)cc3)=Nc3c(N)nc(N)nc3N2)cc(OC)c1OC (configuration not stated)",
    "assayed.target": "SF-295 CNS",
    "growth": "77.6% (inactive)"
  },
  {
    "compound": "CCc1ccc(NC(=O)N[C@@H](Cc2cccc(F)c2)C(=O)N[C@@H]2C(=O)N3CCC[C@H]3C(=O)N3CCCC[C@H]3C(=O)N[C@@H](C)C(=O)N3C[C@H](C)C[C@H]3C(=O)O[C@H]2C)c(F)c1",
    "assayed.target": "SF-295 CNS",
    "growth": "4.24% (active)"
  },
  {
    "compound": "CC1(C)CC[C@]2(C(=O)N3CCCN(CC#N)CC3)CC[C@]3(C)C(=CC[C@@H]4[C@@]5(C)CC[C@H](O)C(C)(C)[C@@H]5CC[C@]43C)[C@H]2C1",
    "assayed.target": "SF-295 CNS",
    "growth": "91.7% (inactive)"
  },
  {
    "compound": "Cn1c2ccc(Br)cc2c2c3c(c4c5cc(F)ccc5oc4c21)C(=O)N(O)C3=O",
    "assayed.target": "SF-295 CNS",
    "growth": "89.9% (inactive)"
  },
  {
    "compound": "C/C(=C(/C)C1CC1CCN(C(=O)c1ccccn1)S(=O)(=O)c1ccc(C)cc1)C1CCCCC1 (configuration not stated)",
    "assayed.target": "SF-295 CNS",
    "growth": "90.4% (inactive)"
  },
  {
    "compound": "NC(=O)N1N=C(c2cc3ccccc3oc2=O)CC1c1cn(-c2ccccc2)nc1-c1ccc(Cl)cc1 (configuration not stated)",
    "assayed.target": "SF-295 CNS",
    "growth": "19.6% (inactive)"
  },
  {
    "compound": "Nc1ccc(-c2nnc(SCc3ccc(O)c4ncccc34)o2)cc1",
    "assayed.target": "SF-295 CNS",
    "growth": "-21.6% (active)"
  },
  {
    "compound": "Oc1ccc(CSc2nnc(-c3ccccc3)n2-c2ccccc2)c2cccnc12",
    "assayed.target": "SF-295 CNS",
    "growth": "0.953% (active)"
  },
  {
    "compound": "O=C(NCCNc1cc(-c2cn(-c3ccccc3)nc2-c2cccc(O)c2)ccn1)Nc1ccc(Cl)c(C(F)(F)F)c1",
    "assayed.target": "SF-295 CNS",
    "growth": "7.84% (active)"
  },
  {
    "compound": "CSc1nccc(-c2c(-c3ccc(F)c(OCc4ccc(F)cc4)c3)nc3sccn23)n1",
    "assayed.target": "SF-295 CNS",
    "growth": "80.3% (inactive)"
  },
  {
    "compound": "O=S(=O)(Nc1cc(Cl)c(F)c(Cl)c1)c1ccc(-c2cnc(C3CC3)o2)cc1",
    "assayed.target": "SF-295 CNS",
    "growth": "16.8% (inactive)"
  },
  {
    "compound": "c1ccc(-c2n(Cc3ccc4ccccc4c3)c3c4ccccc4c4ccccc4c3[n+]2Cc2ccc3ccccc3c2)cc1",
    "assayed.target": "SF-295 CNS",
    "growth": "-87.1% (active)"
  },
  {
    "compound": "Cc1ccc(NC(=O)c2ccc(CN3CCN(C)CC3)c(C(F)(F)F)c2)cc1Oc1ccc(-c2[nH]nc3ncnc(N)c23)cc1",
    "assayed.target": "SF-295 CNS",
    "growth": "82.8% (inactive)"
  },
  {
    "compound": "O=C1Nc2ccc(Cl)cc2/C1=C/c1ccc(OCc2ccc(F)cc2)cc1",
    "assayed.target": "SF-295 CNS",
    "growth": "99% (inactive)"
  },
  {
    "compound": "O=C1c2c(c3c4cccnc4[nH]c3c3ccc4ccccc4c23)C(=O)N1CCN1CCNCC1",
    "assayed.target": "SF-295 CNS",
    "growth": "84.2% (inactive)"
  },
  {
    "compound": "Clc1ccccc1/C=C/c1nn2c(-c3ccncc3)nnc2s1",
    "assayed.target": "SF-295 CNS",
    "growth": "98% (inactive)"
  },
  {
    "compound": "CCN1CCN(Cc2ccc(C(=O)Nc3nc4ccc(Oc5ccnc(C(=O)NC)c5)cc4s3)cc2C(F)(F)F)CC1",
    "assayed.target": "SF-295 CNS",
    "growth": "35.1% (inactive)"
  },
  {
    "compound": "COc1ccc(N)cc1C(=O)Nc1cccc(-c2cc(=O)c3c(OC)c(OC)c(OC)cc3o2)c1",
    "assayed.target": "SF-295 CNS",
    "growth": "63.8% (inactive)"
  },
  {
    "compound": "NS(=O)(=O)c1ccc(-n2cc(CC=O)nn2)cc1",
    "assayed.target": "SF-295 CNS",
    "growth": "98.6% (inactive)"
  },
  {
    "compound": "O=C(/C=C1\\C=CN(CCCCO)c2ccccc21)n1ccc2ccccc21",
    "assayed.target": "SF-295 CNS",
    "growth": "103% (inactive)"
  },
  {
    "compound": "O=C1c2c(O)cc(O)cc2O[C@@H](c2ccc(O)cc2)[C@@H]1c1c(O)cc(O)c2c(=O)cc(-c3ccc(O)c(O)c3)oc12",
    "assayed.target": "SF-295 CNS",
    "growth": "108% (inactive)"
  },
  {
    "compound": "CCCCOc1ccc(S(=O)(=O)N2CCN(c3nccc(N4CCOCC4)n3)CC2)cc1",
    "assayed.target": "SF-295 CNS",
    "growth": "-40.2% (active)"
  },
  {
    "compound": "CCN(CC)c1ccc2cc(C(=O)NCCOCCOCCOCCn3cc(CCC(=O)Nc4ccc(C(=O)c5ccc(NC(=O)OC(C)(C)C)cc5)cc4)nn3)c(=O)oc2c1",
    "assayed.target": "SF-295 CNS",
    "growth": "43.3% (inactive)"
  },
  {
    "compound": "O=S(=O)(Nc1ccc(-c2nc(-c3cccc(O)c3)c(-c3ccnc(Br)c3)[nH]2)cc1)c1ccccc1",
    "assayed.target": "SF-295 CNS",
    "growth": "10.4% (inactive)"
  },
  {
    "compound": "C(=C(\\C1=NCCN1)n1cnc2ccccc21)/c1cccc2ccccc12",
    "assayed.target": "SF-295 CNS",
    "growth": "76.9% (inactive)"
  },
  {
    "compound": "C=C1C(=O)O[C@@H]2C[C@@H](C)CCC(=O)[C@](C)(OC(C)=O)C[C@H](OC(=O)/C(C)=C\\C)[C@@H]12",
    "assayed.target": "SF-295 CNS",
    "growth": "97.5% (inactive)"
  },
  {
    "compound": "COc1cnc2c(c1)C(=O)c1c-2n(CCCn2ccnc2)c(=O)c2cc(OC)c(OC)cc12",
    "assayed.target": "SF-295 CNS",
    "growth": "-20.5% (active)"
  },
  {
    "compound": "O=S(=O)(Nc1ccc2c(c1)OC(F)(F)O2)c1ccc(-c2cnc(C3CC3)o2)cc1",
    "assayed.target": "SF-295 CNS",
    "growth": "22.6% (inactive)"
  },
  {
    "compound": "COc1ccc(OC)c(NC2=C(Cl)C(=O)C(C)=C(C)C2=O)c1",
    "assayed.target": "SF-295 CNS",
    "growth": "100% (inactive)"
  },
  {
    "compound": "CC1OC(O[C@@H]2C(O)C(CO)OC(O[C@H]3COC(O[C@H]4CC[C@]5(C)[C@H]6CC[C@]78OC[C@@]9(CC[C@](C)(C=O)C[C@H]97)[C@H](O)C[C@@]8(C)[C@]6(C)CC[C@H]5C4(C)C)[C@@H](OC4OC(CO)[C@@H](O)[C@@H](O)[C@@H]4O)[C@@H]3O)[C@H]2OC2OC[C@@H](O)[C@@H](O)[C@@H]2O)[C@@H](O)[C@@H](O)[C@H]1O (some centres not stated)",
    "assayed.target": "SF-295 CNS",
    "growth": "-59.2% (active)"
  }
]

Where do the numbers come from? From PubChem BioAssay (NCI).
